Taken from paper PMC7946228.

- Test system: T778 liposarcoma cell line
- ASSAY DETAILS: CellTiter-Glo viability, GR50, 72h
- Assay type: cell-based, human
- APPLIED CONDITIONS: T778, 72h; read-out: Half maximum effective concentration corrected for cell growth (GR50)
MEASURED QUANTITY: IC50 (nM)
Answer with a number only, understood to be in nM.

IN: If you can, please state the reported IC50 value of CC(C)C[C@H](NC(=O)CNC(=O)c1cc(Cl)ccc1Cl)B1OC(=O)C(CC(=O)O)(CC(=O)O)O1 [MLN9708] .
OUT: 774

* * *

Measured pIC50 values are reported for all entries that follow.
- Test system: T449 liposarcoma cell line
- ASSAY DETAILS: CellTiter-Glo viability, GR50, 72h
- Assay type: cell-based, human
- APPLIED CONDITIONS: Homo sapiens; T449, 72h; read-out: Half maximum effective concentration corrected for cell growth (GR50)
Here pIC50 is given on a logarithmic scale as minus log10 of the concentration in mol/L.

Cn1cc(CNCC2CCN(c3ncc(C(=O)NO)cn3)CC2)c2ccccc21	7.60
O=C(/C=C/c1cccnc1)NCCCCC1CCN(C(=O)c2ccccc2)CC1	9.00
COc1ncc(-c2ccc3nccc(-c4ccnnc4)c3c2)cc1NS(=O)(=O)c1ccc(F)cc1F	8.00
COCCn1c2c([n+](Cc3cnccn3)c1C)C(=O)c1ccccc1C2=O	6.15

Please look at the following molecule next.
IN: Record CC(C)[C@]12O[C@H]1[C@@H]1O[C@]13[C@]1(O[C@H]1C[C@H]1C4=C(CC[C@@]13C)C(=O)OC4)[C@@H]2O [Triptolide] : what is its pIC50 with T449 liposarcoma cell line?
OUT: 8.10

* * *

- Test system: SA-4 liposarcoma cell line
- ASSAY DETAILS: CellTiter-Glo viability, GR50, 72h
- Format: cell-based, human
- APPLIED CONDITIONS: Homo sapiens; SA-4, 72h; read-out: Half maximum effective concentration corrected for cell growth (GR50)
MEASURED QUANTITY: IC50 (nM)
Answer with a number only, understood to be in nM.

Below are worked cases with known answers.
COc1ncc(-c2ccc3nccc(-c4ccnnc4)c3c2)cc1NS(=O)(=O)c1ccc(F)cc1F	86
O=C(/C=C/c1cccnc1)NCCCCC1CCN(C(=O)c2ccccc2)CC1	10
COCCn1c2c([n+](Cc3cnccn3)c1C)C(=O)c1ccccc1C2=O	30

IN: If you can, please state the reported IC50 value of `Cn1cc(CNCC2CCN(c3ncc(C(=O)NO)cn3)CC2)c2ccccc21` .
OUT: 44

IN: If you can, please state the reported IC50 value of CC(C)[C@]12O[C@H]1[C@@H]1O[C@]13[C@]1(O[C@H]1C[C@H]1C4=C(CC[C@@]13C)C(=O)OC4)[C@@H]2O [Triptolide] .
OUT: 13

* * *

- Tested on: SW872 liposarcoma cell line
- ASSAY DETAILS: CellTiter-Glo viability, GR50, 72h
- Assay type: cell-based, human
- APPLIED CONDITIONS: SW 872, 72h; read-out: Half maximum effective concentration corrected for cell growth (GR50)
MEASURED QUANTITY: IC50 (nM)
Answer with a number only, understood to be in nM.

IN: If you can, please state the reported IC50 value of `CC(C)C[C@H](NC(=O)CNC(=O)c1cc(Cl)ccc1Cl)B1OC(=O)C(CC(=O)O)(CC(=O)O)O1` .
OUT: 553
